# credit: patent US8293768B2

Quantity Name: melting point

Molecule	Measured Value
Cc1csc(N2CCN(Cc3ccc(C(=O)NCc4ccccc4)cc3)C2=O)n1 [Example 8.9]	185 to 186 °C
Cc1csc(N2CCN(Cc3ccc(C(=O)n4nccc4C)cc3)C2=O)n1 [Example 8.8]	96 to 97 °C
Cc1ccc(CNC(=O)c2sc(N3CCN(Cc4ccccc4)C3=O)nc2C)o1 [Example 9.10]	138 to 139 °C
Cc1nc(N2CCN(Cc3ccc(OC(F)(F)F)cc3)C2=O)sc1C(=O)NCCc1cccnc1 [Example 9.32]	172 to 173 °C
Cc1nc(N2CCN(CC3CCCCO3)C2=O)sc1C(=O)NCc1cccnc1 (centres unmarked) [Example 9.36]	174 to 175 °C
Cc1nc(N2CCN(Cc3ccc(OC(F)(F)F)cc3)C2=O)sc1C(=O)NCCc1ccccc1 [Example 9.31]	184 to 185 °C
Cc1nc(N2CCN(Cc3ccc(Cl)cc3)C2=O)sc1C(=O)NCc1cccnc1 [Example 9.28]	178 to 179 °C

Please look at the following molecule next.
Prompt: # return recorded melting point for input Cc1cc(-n2cnn(Cc3ccc(S(C)(=O)=O)cc3)c2=O)sc1C(=O)NCc1cccnc1 [Example 31.4]
Response: 208 to 210 °C

* * *

Reported IC50, stearoyl-CoA desaturase (SCD1) (Mus musculus, UniProt P13516).
Quantity Name: IC50 (nM)

A. Cc1noc(-c2sc(N3CCN(Cc4ccc(C(F)(F)F)cc4)C3=O)nc2C)n1
B. O=C(NCc1cccnc1)c1sc(N2CCN(Cc3ccc(F)cc3)C2=O)nc1C(F)(F)F
Prompt: Which record shows the lower IC50: the first, A , or the second, B ? API: response body contains the label of the selected item.
Response: B

* * *

Quantity Name: melting point

Recorded melting point, per entry:
Compound	Measured Value
CNC(=O)c1sc(N2CCN(Cc3ccc(F)cc3)C2=O)nc1C	225 to 227 °C
Cc1nc(-n2cnn(Cc3ccc(OC(F)F)cc3)c2=O)sc1C(=O)NCc1cccnc1	151 to 152 °C

Prompt: # return recorded melting point for input `Cc1nc(N2CCN(CC3CC3)C2=O)sc1C(=O)NCc1ccc(F)cc1`
Response: 146 to 147 °C

Prompt: # return recorded melting point for input `Cc1nc(N2CCN(Cc3ccc(OC(F)(F)F)cc3)C2=O)sc1C(=O)NCCC1CC1`
Response: 195 to 196 °C

Prompt: # return recorded melting point for input `Cc1ncc(CNC(=O)c2sc(N3CCN(Cc4ccc(F)cc4)C3=O)nc2C)s1`
Response: 213 to 215 °C

Prompt: # return recorded melting point for input `Cc1cc(-c2sc(N3CCN(Cc4ccc(C(F)(F)F)cc4)C3=O)nc2C)n[nH]1`
Response: 238 to 239 °C

Prompt: # return recorded melting point for input `Cc1nc(N2CCN(Cc3ccc(C(F)(F)F)cc3)C2=O)sc1-c1cnco1`
Response: 160 to 162 °C

Prompt: # return recorded melting point for input `Cc1nc(N2CCN(Cc3ccncc3)C2=O)sc1C(=O)NCc1cccnc1`
Response: 233 to 235 °C

Prompt: # return recorded melting point for input `Cc1nc(N2CCN(Cc3c(C)noc3-c3ccccc3)C2=O)sc1C(=O)NCc1cccnc1`
Response: 109 to 111 °C

Prompt: # return recorded melting point for input `Cc1nc(N2CCN(Cc3ccc(C(F)(F)F)cc3)C2=O)sc1C(=O)NCc1cccnc1`
Response: 107 to 108 °C

Prompt: # return recorded melting point for input `CCNC(=O)c1sc(N2CCN(Cc3ccc(OC(F)(F)F)cc3)C2=O)nc1C`
Response: 218 to 219 °C

Prompt: # return recorded melting point for input `Cc1nc(N2CCN(Cc3ccc4nsnc4c3)C2=O)sc1C(=O)NCc1cccnc1`
Response: 105 to 107 °C

Prompt: # return recorded melting point for input `Cc1nc(-n2cnn(CCNCc3ccc(F)cc3)c2=O)sc1C(=O)NCc1cccnc1`
Response: 106 to 107 °C

Prompt: # return recorded melting point for input `Cc1nc(N2CCN(Cc3ccccc3)C2=O)sc1C(=O)NCc1ccccc1`
Response: 169 to 171 °C

Prompt: # return recorded melting point for input `Cc1csc(N2CCN(Cc3ccc(C(=O)Nc4ccc(F)cc4)cc3)C2=O)n1`
Response: 206 to 207 °C

Prompt: # return recorded melting point for input `Cc1cc(-c2sc(N3CCN(Cc4ccc(C(F)(F)F)cc4)C3=O)nc2C)on1`
Response: 201 to 203 °C

Prompt: # return recorded melting point for input `Cc1nc(N2CCN(Cc3ccc(C(F)(F)F)o3)C2=O)sc1C(=O)NCc1ccccc1`
Response: 143 to 145 °C

Prompt: # return recorded melting point for input `Cc1nc(N2CCN(Cc3cccc(F)c3)C2=O)sc1C(=O)NCc1ccccc1`
Response: 155 to 156 °C

Prompt: # return recorded melting point for input `Cc1cc(-n2cnn(Cc3ccccc3)c2=O)sc1C(=O)NCc1cccnc1`
Response: 180 to 181 °C

Prompt: # return recorded melting point for input `Cc1nc(N2CCN(Cc3ncoc3-c3ccccc3)C2=O)sc1C(=O)NCc1cccnc1`
Response: 78 to 81 °C

Prompt: # return recorded melting point for input `COC(=O)c1ccccc1CN1CCN(c2nc(C)c(C(=O)NCc3ccccc3)s2)C1=O`
Response: 130 to 133 °C

Prompt: # return recorded melting point for input `Cc1cc(N2CCN(CCc3ccccc3)C2=O)sc1C(=O)NCc1cccnc1`
Response: 95 to 97 °C

Prompt: # return recorded melting point for input `Cc1nc(N2CCN(Cc3ccccc3)C2=O)sc1C(=O)NCc1ccc(F)c(F)c1`
Response: 152 to 153 °C
